For each of the compounds below, state its growth.
# System: HOP-62 NSCLC
# Procedure Text: NCI-60 one-dose screen, 48 h (100 = growth as untreated, 0 = no growth, -100 = all killed)
# Condition Description: 10 µM unless noted
The panel holds about 83,000 compounds, 20% with a hit somewhere; the sample as a whole holds those more often.
Respond numerically; units are % and should not be typed.

The recorded growth with HOP-62 NSCLC for COc1ccc(CCN2CCC(CN(C)Cc3cnn(-c4ccccc4)c3)CC2)cc1 was 30

The recorded growth with HOP-62 NSCLC for COc1ccccc1N1C(=N)S/C(=C\c2ccc(OCc3ccccc3F)cc2)C1=O was 98.8

The recorded growth with HOP-62 NSCLC for O=C(NC1C(O)OC(CO)C(O)C1O)NS(=O)(=O)c1ccc(Cl)cc1 (stereo unspecified) was 92.9

The recorded growth with HOP-62 NSCLC for NC(CCl)=NCCC[C@H](N)C(=O)O was 126

The recorded growth with HOP-62 NSCLC for COc1cc(CNC(=O)c2ccsc2Nc2ccnc(C(F)(F)F)c2)ccc1O was 126

The recorded growth with HOP-62 NSCLC for CCCc1c(C)c2sc(=O)[nH]c2[nH]c1=O was 107

The recorded growth with HOP-62 NSCLC for COc1ccc(Nc2cc(C)nc(NCc3ccccc3)n2)cc1 was 38.5

The recorded growth with HOP-62 NSCLC for Cc1ccc(C(=O)c2oc3ccc4c(C)cc(=O)oc4c3c2C)cc1 was 61.3

The recorded growth with HOP-62 NSCLC for CCOC(=O)c1ccc2[nH]c(-c3ccccc3)cc(=O)c2c1 was 106

The recorded growth with HOP-62 NSCLC for CCCN1C(=O)N(CCC)C2C1NN=c1s/c(=C3\C(=O)N(C(C)C)c4ccccc43)c(=O)n12 (stereo unspecified) was 41.9

The recorded growth with HOP-62 NSCLC for Cc1cc(OC(=O)c2ccc([N+](=O)[O-])cc2)nc2[nH]c(=O)sc12 was 111

* * *

For each of the compounds below, state its growth.
# Tested on: KM12 colon
# Procedure Text: NCI-60 one-dose screen, 48 h (100 = growth as untreated, 0 = no growth, -100 = all killed)
# Condition Description: 10 µM unless noted
This is part of a sample that, as a whole, favours compounds with a hit. Of some 83,000 tested, about 20% had one in any assay.
Respond numerically; units are % and should not be typed.

The recorded growth with KM12 colon for C[C@@H](C(=O)NCCCC#Cc1cnc(Nc2ccc(C#N)cc2)nc1NC1CC1)N(C)C(=O)/C=C/CN(C)C was 17.7

The recorded growth with KM12 colon for Nc1nc(-c2ccccc2Br)nn1-c1nc2ccccc2s1 was 101

The recorded growth with KM12 colon for Cc1ccc(S(=O)c2ccc([N+](=O)[O-])c3nonc23)cc1 (stereo not given) was 109

The recorded growth with KM12 colon for CC(=O)Nc1nc2c(s1)CCc1c-2cn(S(=O)(=O)c2ccccc2)c1-c1ccccc1 was 54.9

The recorded growth with KM12 colon for COc1cccc(C(=O)NC(c2ccc(C)cc2)c2cc(Cl)c3cccnc3c2O)c1 (stereo not given) was 20.7

The recorded growth with KM12 colon for CN(C)c1ccc(/C=C/c2ccnc3c(O)cccc23)cc1 was 16.2

The recorded growth with KM12 colon for Cc1cc2c(c(C)c1Cl)C(=O)/C(=C/c1cccc([N+](=O)[O-])c1)O2 was 103

The recorded growth with KM12 colon for NNC(=O)CNC(=O)Nc1n[nH]c(=S)s1 was 100

The recorded growth with KM12 colon for Clc1ccc(Oc2ccc(Nc3ncnc4onc(-c5ccccc5)c34)cc2)c(Cl)c1 was 103

The recorded growth with KM12 colon for CCN1CCN(c2cc(C)c3cc(NC(=O)c4ccc(OC)c(OC)c4)ccc3n2)CC1 was 26.2

* * *

For each of the molecules below, state its growth.
# Tested on: NCI-H322M lung
# Procedure Text: NCI-60 one-dose screen, 48 h (100 = growth as untreated, 0 = no growth, -100 = all killed)
# Condition Description: 10 µM unless noted
About 83,000 compounds went through this panel and 20% of them were active in at least one assay; those are over-represented in the sample as a whole.
Respond numerically; units are % and should not be typed.

Sample O=C(NC1CCN(Cc2ccccc2)CC1)c1cc2nc(-c3ccc(Cl)s3)cc(C(F)(F)F)n2n1 ; growth observed: 113

Sample Cc1c(-c2noc(-c3ccc([N+](=O)[O-])cc3)n2)no[n+]1[O-] ; growth observed: 88.4

Sample COc1cc(C2C(C#N)=C(N)OC3=C2C(=O)c2ccccc2C3=O)cc(OC)c1O (stereo not given) ; growth observed: 47.7

Sample COc1ccc(C2c3ccc4ccccc4c3Oc3ncn(CCCn4ccnc4)c(=N)c32)cc1OC (stereo not given) ; growth observed: 49.8

Sample O=C1Nc2ccccc2/C1=C/c1ccc[nH]1 ; growth observed: 88

* * *

# Tested on: UACC-257 melanoma
# Procedure Text: NCI-60 one-dose screen, 48 h (100 = growth as untreated, 0 = no growth, -100 = all killed)
# Condition Description: 10 µM unless noted
This is part of a sample that, as a whole, favours compounds with a hit. Of some 83,000 tested, about 20% had one in any assay. Active and inactive are the calls of the source. How the source made its calls: active means growth percent below 10; inactive means the rest.
For each of the molecules below, state its growth.

Sample CC1(C)CC2(C)OC2C2(C1)N=NC(=Nc1ccccc1)O2 (stereo not given) ; growth observed: 64.2% (inactive)

Sample CC1=C(C(=O)OCC2CCN(C(=O)OC(C)(C)C)CC2)[C@H](c2cccc(Br)c2)C2=C(CC(C)(C)CC2=O)N1 ; growth observed: 29.1% (inactive)

Sample COc1ccc(-n2c(C(O)c3ccccc3)nn(CN3CCOCC3)c2=S)cc1 (stereo not given) ; growth observed: 105% (inactive)

Sample CCOC(=O)c1c2c(n3cccc(Cl)c13)C(=O)c1ncccc1C2=O ; growth observed: 60.8% (inactive)

Sample FC(F)(F)c1cccc(Nc2nc3ccccc3nc2Nc2cccc(C(F)(F)F)c2)c1 ; growth observed: -75.1% (active)

Sample COc1ccc(N2C(=O)CC(c3cc(OC)c(OC)c(OC)c3)C3C2=NC(=O)N3C)cc1 (stereo not given) ; growth observed: 98.2% (inactive)

Sample COc1ccc(N(C)c2nc(N)nc3sc4c(c23)CCCC4)cc1 ; growth observed: 39% (inactive)

Sample COc1ccc2oc(=O)cc(Cn3cc(Cn4cnc5c4c(=O)n(C)c(=O)n5C)nn3)c2c1 ; growth observed: 98% (inactive)

Sample CCOC(=O)C1=C(C)N=c2s/c(=C\c3ccccc3O)c(=O)n2C1c1ccc(OC)c2ccccc12 (stereo not given) ; growth observed: -85.8% (active)

Sample O=C1Nc2ccccc2/C1=C/c1ccc[nH]1 ; growth observed: 96.6% (inactive)

* * *

For each of the compounds below, state its growth.
# Test system: CCRF-CEM leukemia
# Procedure Text: NCI-60 one-dose screen, 48 h (100 = growth as untreated, 0 = no growth, -100 = all killed)
# Condition Description: 10 µM unless noted
About 83,000 compounds went through this panel and 20% of them were active in at least one assay; those are over-represented in the sample as a whole.
Respond numerically; units are % and should not be typed.

Sample C1=CC2(C=C1)OC21CCC2(C=CC3(C2)OC3C2CCCCC2)CC1 (stereo not given) ; growth observed: 97.1

Sample CCOC(=O)C(CC(=O)O)=C(C(=O)OCC)C(=O)OCC ; growth observed: 110

Sample CCOC(=O)C1=C(C)N=c2s/c(=C\c3ccccc3O)c(=O)n2C1c1ccc(OC)c2ccccc12 (stereo not given) ; growth observed: 2.51

Sample Clc1ncccc1Nc1ccc2nnc(-c3ccncc3)n2n1 ; growth observed: 91.2

Sample NCCCNc1nc2ccccc2c2c(=O)c3cc(F)ccc3sc12 ; growth observed: 0.338

Sample NC(=O)CSc1nc(-c2ccc(F)cc2)cc(-c2ccco2)n1 ; growth observed: 107

Sample COc1cc(C(C)n2cc(-c3ccccc3)nn2)ccc1OC1CCCCC1 (stereo not given) ; growth observed: 55.3

Sample CN1CCN(Cc2ccc(NC(=O)c3cncc(C#Cc4nc(N)nc5[nH]ncc45)c3)cc2C(F)(F)F)CC1 ; growth observed: 5.35

Sample COc1ccc(C(O)(CCC(C)C)C(CN2CCOCC2)c2ccc(Cl)cc2)cc1 (stereo not given) ; growth observed: 34.2

Sample O=C(Nc1ccc(C23CC4CC(CC(c5ccccc5)(C4)C2)C3)cc1)c1cccs1 ; growth observed: 56.8

* * *

For each of the compounds below, state its growth.
# Tested on: BT-549 breast
# Procedure Text: NCI-60 one-dose screen, 48 h (100 = growth as untreated, 0 = no growth, -100 = all killed)
# Condition Description: 10 µM unless noted
The panel holds about 83,000 compounds, 20% with a hit somewhere; the sample as a whole holds those more often.
Respond numerically; units are % and should not be typed.

Sample COc1ccc(C(=O)Nc2ccc3nc(N4CCCCC4)cc(C)c3c2)cc1OC ; growth observed: 90.6

Sample COc1ccc(CCN2C(=O)CCSC2=S)cc1OC ; growth observed: 114

Sample O=c1c2cc(F)ccc2sc2c(NCCN3CCCC3)nc3ccccc3c12 ; growth observed: 86.7

Sample CCN1CCN(C(=S)SCC(=O)Nc2nc3ccc(C)cc3s2)CC1 ; growth observed: 108

Sample CC[C@H](C)[C@@H](C(=O)OC)n1cc(CNC(=O)[C@@H](Cc2ccccc2)NC(=O)OCc2ccccc2)nn1 ; growth observed: 106

Sample Cc1ccc(C2CC(c3ccc(Nc4nc(NCCO)nc(Nc5ccc(Cl)cc5)n4)cc3)=NN2c2cc(Cl)cc(Cl)c2)cc1 (centres undefined) ; growth observed: 95.9

Sample NCCCNc1nc2ccccc2c2c(=O)c3cc(F)ccc3sc12 ; growth observed: 81.1

Sample OCCNc1nc(Nc2ccc(C3=NN(c4cc(Cl)cc(Cl)c4)C(c4ccc(C(F)(F)F)cc4)C3)cc2)nc(N2CCOCC2)n1 (centres undefined) ; growth observed: 99.3

Sample O=C(/C=C/c1ccc(C(F)(F)F)cc1)c1ccc(Nc2nc(NCCO)nc(Nc3ccc(Cl)cc3)n2)cc1 ; growth observed: 57.9

Data credit: PubChem BioAssay (NCI)
